Target: Kappa-type opioid receptor (Homo sapiens)
Sequence (P41145 whole entry): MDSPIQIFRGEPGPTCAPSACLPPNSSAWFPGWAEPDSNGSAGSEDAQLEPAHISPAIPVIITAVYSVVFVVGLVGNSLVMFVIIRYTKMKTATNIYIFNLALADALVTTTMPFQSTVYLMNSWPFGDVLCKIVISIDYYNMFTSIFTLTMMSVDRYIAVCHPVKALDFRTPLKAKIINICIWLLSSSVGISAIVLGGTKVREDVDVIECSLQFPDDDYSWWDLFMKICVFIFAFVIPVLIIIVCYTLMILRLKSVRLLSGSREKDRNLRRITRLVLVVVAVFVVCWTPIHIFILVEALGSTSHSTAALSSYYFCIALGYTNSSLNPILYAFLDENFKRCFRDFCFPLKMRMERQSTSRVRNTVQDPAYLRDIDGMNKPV
pKi: −log10 of the molar value.
Mark Satisfied for reported pKi of 9 or greater; mark Not satisfied for anything smaller.

[[record]]
compound = "COc1cc(OC)cc(C(=O)N[C@@H]2CC[C@@]3(O)[C@H]4Cc5ccc(O)c6c5[C@@]3(CCN4CC3CC3)[C@H]2O6)c1"
group = "Satisfied"

[[record]]
compound = "COc1cc(OC)cc(C(=O)N[C@H]2CC[C@@]3(O)[C@H]4Cc5ccc(O)c6c5[C@@]3(CCN4CC3CC3)[C@H]2O6)c1"
group = "Not satisfied"

[[record]]
compound = "O=C(N[C@@H]1CC[C@@]2(O)[C@H]3Cc4ccc(O)c5c4[C@@]2(CCN3CC2CC2)[C@H]1O5)c1cccc([N+](=O)[O-])c1"
group = "Satisfied"

[[record]]
compound = "O=C(Cc1ccccc1)N[C@@H]1CC[C@@]2(O)[C@H]3Cc4ccc(O)c5c4[C@@]2(CCN3CC2CC2)[C@H]1O5"
group = "Satisfied"

[[record]]
compound = "COc1cccc(CC(=O)N[C@@H]2CC[C@@]3(O)[C@H]4Cc5ccc(O)c6c5[C@@]3(CCN4CC3CC3)[C@H]2O6)c1"
group = "Satisfied"

[[record]]
compound = "O=C(C[C@@H]1O[C@H](CO)[C@@H](O)[C@H](O)[C@H]1O)N[C@@H]1CC[C@@]2(O)[C@H]3Cc4ccc(O)c5c4[C@@]2(CCN3CC2CC2)[C@H]1O5"
group = "Not satisfied"

[[record]]
compound = "COc1cccc(C(=O)N[C@@H]2CC[C@@]3(O)[C@H]4Cc5ccc(O)c6c5[C@@]3(CCN4CC3CC3)[C@H]2O6)c1"
group = "Satisfied"

[[record]]
compound = "O=C(O)c1ccc(C(=O)N[C@@H]2CC[C@@]3(O)[C@H]4Cc5ccc(O)c6c5[C@@]3(CCN4CC3CC3)[C@H]2O6)cc1"
group = "Not satisfied"

[[record]]
compound = "O=C(Cc1cccs1)N[C@H]1CC[C@@]2(O)[C@H]3Cc4ccc(O)c5c4[C@@]2(CCN3CC2CC2)[C@H]1O5"
group = "Not satisfied"

